Target: T1, human GIP receptor (human) (UniProt P48546)
T1 sequence (looked up): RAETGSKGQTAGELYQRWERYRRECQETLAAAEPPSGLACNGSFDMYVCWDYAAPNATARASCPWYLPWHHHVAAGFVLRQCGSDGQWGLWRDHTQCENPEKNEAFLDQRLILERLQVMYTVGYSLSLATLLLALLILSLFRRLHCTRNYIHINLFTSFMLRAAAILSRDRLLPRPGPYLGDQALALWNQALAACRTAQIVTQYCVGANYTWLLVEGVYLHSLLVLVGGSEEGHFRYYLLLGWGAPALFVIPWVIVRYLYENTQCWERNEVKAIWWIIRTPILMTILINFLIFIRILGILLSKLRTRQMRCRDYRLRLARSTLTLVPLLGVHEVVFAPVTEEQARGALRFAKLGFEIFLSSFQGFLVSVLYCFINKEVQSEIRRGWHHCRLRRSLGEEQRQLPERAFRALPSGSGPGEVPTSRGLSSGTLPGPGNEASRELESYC
Test: cell-based or functional assay
Starred links: 1 amine or outer side, 2 acyl side, 3 side chain; linkers in the order of their positions; H or OH if unused. Non-standard residues stand in square brackets, D forms with d. Groups on a side chain read outwards from the residue. No end group written: not given here. *: point of attachment. C18 diacid = O=C(O)CCCCCCCCCCCCCCCCC(=O)*; γGlu = O=C(O)[C@H](CCC(=O)[*:2])N[*:1]; αMeL = CC(C)C[C@](C)(N)C(=O)O; Dap = NC[C@H](N)C(=O)O; Aib = CC(C)(N)C(=O)O
// criterion not met strictly below 30 nM in cAMP Rel EC50, nM (1% HSA); criterion met otherwise

Ask: Does YXQGTFTSDXSXXLDXKAQXXFIEXLIEGGPSSGAPPPSGSEE (Aib, 4Pal, Orn, Me4Pal, alpha-methyl-Tyr, lipidated Lys, amide; synthetic construct; SITE 2: note = 2-Aminoisobutyric Acid; SITE 10: note = 3-(4-Pyridyl)-L-alanine; SITE 12: note = L-ornithine; SITE 13: note = alpha-methyl-leucine; SITE 16: note = L-ornithine; SITE 17: note = Lysine is chemically modified through conjugation of the epsilon-amino group of the Lys) [Example 974] have a reported cAMP Rel EC50, nM (1% HSA) of at least 30 nM?
Reply: criterion met

Ask: Does YXQGTFTSDFSXXLDKKAQXAFIEYLLEGGPSSGAPPPGGSEE (non-natural residues; acylated Lys; C-terminal amide; synthetic construct; SITE 2: note = 2-Aminoisobutyric Acid; SITE 12: note = L-ornithine; SITE 13: note = alpha-methyl-leucine; SITE 17: note = Lysine is chemically modified through conjugation of the epsilon-amino group of the Lysine side chain with (gamma-Glu)2-CO-(CH2)16-CO2H; SITE 20: note = 2-Am) [Example 1047] have a reported cAMP Rel EC50, nM (1% HSA) of at least 30 nM?
Reply: criterion met

Ask: Does YXQGTFTSDXSXXLDKKAQXAFIEXLIEXGPSSGEPPPSGSE (Aib, 4Pal, Me4Pal, Orn, alpha-methyl-Leu, lipidated Lys, amide; synthetic construct; SITE 2: note = 2-Aminoisobutyric Acid; SITE 10: note = 3-(4-Pyridyl)-L-alanine; SITE 12: note = L-ornithine; SITE 13: note = alpha-methyl-leucine; SITE 17: note = Lysine is chemically modified through conjugation of the epsilon-amino group of the Lysine side chain with (gamma-Gl)) [Example 990] have a reported cAMP Rel EC50, nM (1% HSA) of at least 30 nM?
Reply: criterion not met

Ask: Does YXQGTFTSDXSQXLDXKAQXAFIEYLIAGGPSSGEPPPSGTEEE (non-natural residues; acylated Lys; C-terminal amide; synthetic construct; SITE 2: note = 2-Aminoisobutyric Acid; SITE 10: note = 3-(4-Pyridyl)-L-alanine; SITE 13: note = alpha-methyl-leucine; SITE 16: note = L-ornithine; SITE 17: note = Lysine is chemically modified through conjugation of the epsilon-amino group of the Lysine side chain with (gamma-Gl)) [Example 986] have a reported cAMP Rel EC50, nM (1% HSA) of at least 30 nM?
Reply: criterion met

Ask: Does YXQGTFTSDXSQXLDXKAQXAFIEYLIAGGPSSGEPPPSGSE (Aib, 4Pal, αMeL, Orn, Me4Pal; (γGlu)2-C18 diacid on Lys; synthetic construct; SITE 2: note = 2-Aminoisobutyric Acid; SITE 10: note = 3-(4-Pyridyl)-L-alanine; SITE 13: note = alpha-methyl-leucine; SITE 16: note = L-ornithine; SITE 17: note = Lysine is chemically modified through conjugation of the epsilon-amino group of the Lysine side chain with (gamma-Gl)) [Example 977] have a reported cAMP Rel EC50, nM (1% HSA) of at least 30 nM?
Reply: criterion not met

Ask: Does YXQGTFTSDXSXXLDXKAQXEFIEYLLAGGPSSGAPPPSGSEE ((γGlu)2-C18 diacid on Lys; non-natural residues; amide; synthetic construct; SITE 2: note = 2-Aminoisobutyric Acid; SITE 10: note = 3-(4-Pyridyl)-L-alanine; SITE 12: note = L-ornithine; SITE 13: note = alpha-methyl-leucine; SITE 16: note = L-ornithine; SITE 17: note = Lysine is chemically modified through conjugation of the epsilon-amino group of the Lys) [Example 1003] have a reported cAMP Rel EC50, nM (1% HSA) of at least 30 nM?
Reply: criterion not met

Ask: Does Y[Aib]QGTFTSDFS[Dap][αMeL]LDKK([γGlu-γGlu-C18 diacid])AQ[Aib]AFIEYLLE[Aib]GPSSGAPPPSGS-NH2 [Example 203] have a reported cAMP Rel EC50, nM (1% HSA) of at least 30 nM?
Reply: criterion not met
